All figures here come from patent US20130251728A1.

testedOn: T1, hGCGR-mmh (human)
T1 construct: also called REGN547; monovalent hGCGR
T1 chain: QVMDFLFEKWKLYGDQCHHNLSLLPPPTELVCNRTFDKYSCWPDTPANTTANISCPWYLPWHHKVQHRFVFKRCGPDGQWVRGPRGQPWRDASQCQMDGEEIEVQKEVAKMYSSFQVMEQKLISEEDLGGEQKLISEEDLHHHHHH
assayOverview: SPR Biacore T100, 37C, mAb captured, antigen flowed
I would appreciate it if you labelled entries Y when T½ is 6 min or higher, otherwise N.

{"binder": "H4H1321P (antibody, V domains shown, Fully human anti-GCGR antibody; the controls are called isotype-matched hIgG4) VH: QVQLVESGGGVVQPGRSLRLSCAASGFTFSSYDMHWVRQAPGKGLEWVAVISSDGRDKYYVDSVKGRFTISRDNSKNTLYLQMNSLRAEDTAVYYCAKEMVYYDILTGYHNYYGMDVWGQGTTVTVS VL: DIQMTQSPSSLSASVGDRVTITCRASQGINNYLAWFQQKPGKAPKSLIHTASSLQSGVPSKFSGSGSGTDFTLTISSLQPEDFATYYCQQYNTYPLTFGGGTKVEIK", "class": "N"}
{"binder": "H4H1328P (antibody, V domains shown, Fully human anti-GCGR antibody; the controls are called isotype-matched hIgG4) VH: EVQLVESGGALVQPGGSLRLSCTASGFTFSNYDMHWVRQTTGKGLEWISAIDTAGDTYYPGSVKGRFTVSRENAKNSFYLQMNSLRAGDTAVYYCAREGKYYDILTGDYHYYGMDVWGQGTTVTVS VL: DIQMTQSPSSLSASVGDRVTITCRASQGIRNDLGWYQQKPGKAPKRLIYATSSLQSGVPSRFSGSGSGTEFTLTISSLQPEDFATYYCLQHNSYPLTFGGGTKLEIK", "class": "N"}
{"binder": "H4H1339P (antibody, V domains shown, Fully human anti-GCGR antibody; the controls are called isotype-matched hIgG4) VH: EVQLVESGGGMVQPGGSLRLSCAASGFTSSNYDMHWVRQATGKGLEWVSSIDTAGDTYYPDSVKGRFIISRENAKNSLYLQMNSLRAGDTAVYYCTREPRNYEILTGHYHYHGMDIWGQGTTVTVS VL: AIQMTQSPSSLSASVGDRVTITCRASQAIRNDLGWYQQKPGKAPKLLIYTAFSLQSGVPSRFSGSKSGTDFTLTISSLQPEDFATYYCLQDYTNPRTFGQGTKVEIK", "class": "N"}
{"binder": "H4H1765N (antibody, V domains shown, Anti-GCGR antibody from hybridoma; the controls are called isotype-matched hIgG4) VH: EEQLVESGGDLVQPGGSLRLSCAASGFTLSSYEMNWVRQAPGKGLEWVSYISRGGSLIHYTDSVKGRFTISRDNAKNSLYLQMNSLRAEDTAVYYCVRDPAARYHYYYHGMDVWGQGTTVTVSS VL: DIVMTQSPLSLPVTPGEPASISCRSSQSLLHNNGYNYLDWYLQKPGQSPQLLIYLGSSRASGVPDRFSGSGSGTDFILKISRVEAEDVGVYYCMQALQTPWTFGRGTKVEIK", "class": "Y"}
{"binder": "H4H1331P (antibody, V domains shown, Fully human anti-GCGR antibody; the controls are called isotype-matched hIgG4) VH: QVQLVESGGGVVQPGRSLRLSCAASGFTFSNFGMHWVRQAPGKGLEWVAVIWFDEIDKYYADSVKGRFTISRDNSKNTLYPQMNSLRAEDTAVYYCAREDYDILTGYYYAMDVWGQGTTVTVS VL: DIQMTQSPSSLSASVGDRVTITCRASQGIKNDLGWYQQKPGKAPKRLIYAASRLQSGVPSRFSGSGSGTEFTLTISSLQPEDFGTYYCLQHNSHPTFGQGTKVEIK", "class": "Y"}
